System: colon cancer cell line HCT116
METHOD_DESCRIPTION: Cell proliferation assay (MTS)
Assay type: cell-based
CONDITION_CONTEXT: Homo sapiens, HCT-116; HCT116, 72 hours, 0.04 to 10 μM; read-out: Anti-proliferation IC50 (μM), MTS assay
MEASURED_ATTRIBUTE: IC50 (µM)
Just the number in µM, nothing appended.

// worked examples, IC50 included
COMPOUND	SYSTEM_NAME	IC50 / µM
CCOC(=O)Oc1ccc(Cl)cc1C(=O)Nc1ccc(C(F)(F)F)cc1Cl	colon cancer cell line HCT116	0.51
O=C(Nc1ccc(C(F)(F)F)cc1)c1cc(Cl)ccc1O	colon cancer cell line HCT116	0.67

For this compound ( O=C(Nc1ccc(C(F)(F)F)cc1Cl)c1cc(Cl)ccc1O ), measured IC50 is 0.54

According to the records, this compound O=C(Nc1ccc([N+](=O)[O-])cc1Cl)c1cc(Cl)ccc1O [A, reference compound] displays IC50 of 0.45

---

The entries below are paired with their reported IC50.
Test system: colon cancer cell line HCT116
METHOD_DESCRIPTION: Cell proliferation assay (MTS)
Type: cell-based
CONDITION_CONTEXT: Homo sapiens, HCT-116; HCT116, 72 hours, 0.04 to 10 μM; read-out: Anti-proliferation IC50 (μM), MTS assay
Write it as a number; the unit µM goes unstated.

Use the examples below as a reference point.
CHEM_SMILES	UNIT_ANNOTATION	DATA_VALUE
O=c1oc2ccc(Cl)cc2c(=O)n1-c1ccc(C(F)(F)F)cc1Cl	µM	0.55
CCCCCCCC(=O)Oc1ccc(Cl)cc1C(=O)Nc1ccc([N+](=O)[O-])cc1Cl	µM	0.61

Continue with the next compound.
Lab note: measured IC50 of O=C(Nc1ccc(Cl)cc1Cl)c1cc(Cl)ccc1O was 1.18

---

Quick list: Fzd1-GFP internalization @12.5 μM per entry.
SYSTEM_NAME: Frizzled1-GFP (Homo sapiens)
Construct: expressed in transfected cells
Sequence (Q9UP38 70-647): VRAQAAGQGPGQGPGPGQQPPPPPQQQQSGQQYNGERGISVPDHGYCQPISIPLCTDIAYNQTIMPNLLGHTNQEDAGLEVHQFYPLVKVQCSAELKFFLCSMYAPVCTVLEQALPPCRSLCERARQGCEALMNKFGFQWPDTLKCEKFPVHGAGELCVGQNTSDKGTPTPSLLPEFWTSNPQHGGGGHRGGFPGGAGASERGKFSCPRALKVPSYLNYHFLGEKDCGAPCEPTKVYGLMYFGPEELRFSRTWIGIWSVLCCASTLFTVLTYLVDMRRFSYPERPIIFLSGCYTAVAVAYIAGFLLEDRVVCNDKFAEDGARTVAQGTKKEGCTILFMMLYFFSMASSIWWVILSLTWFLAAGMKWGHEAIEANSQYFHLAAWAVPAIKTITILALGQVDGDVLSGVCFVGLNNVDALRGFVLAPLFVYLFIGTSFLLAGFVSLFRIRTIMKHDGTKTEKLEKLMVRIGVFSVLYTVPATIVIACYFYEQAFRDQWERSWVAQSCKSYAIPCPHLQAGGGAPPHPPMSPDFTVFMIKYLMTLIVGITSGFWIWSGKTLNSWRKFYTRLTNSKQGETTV
METHOD_DESCRIPTION: Frizzled internalization assay (Fzd1-GFP)
Format: cell-based
Design: key: Punctate similar to control=0; trace amount of punctate greater than control=1; moderate=3; strong=5
CONDITION_CONTEXT: 6 hours, 0-5 point scale

Before answering, review these 3 worked examples.
COMPOUND	Fzd1-GFP internalization @12.5 μM
CCOC(=O)Oc1ccc(Cl)cc1C(=O)Nc1ccc(C(F)(F)F)cc1Cl [Compound 70]	5
O=C(Nc1cc(Cl)cc(Cl)c1)c1cc(Cl)ccc1O [Compound 16]	5
CS(=O)(=O)c1ccc(NC(=O)c2cc(Cl)ccc2O)c(Cl)c1 [Compound 5]	0

Next item in the queue.
Sample O=C(Nc1ccccc1Cl)c1cc(Cl)ccc1O [Compound 13] ; Fzd1-GFP internalization @12.5 μM observed: 1

---

Test system: Wnt/β-catenin transcription
METHOD_DESCRIPTION: Wnt-3A-stimulated TOPFlash reporter assay in HEK293 cells
Assay type: cell-based
CONDITION_CONTEXT: Homo sapiens, HEK293, 8 h
// label = Y if inhibition at 2 µM is not less than 60%, otherwise N

Some solved cases for reference:
CHEM_SMILES	SYSTEM_NAME	CATEGORY_LABEL
O=CCOc1cc([N+](=O)[O-])ccc1NC(=O)c1cc(Cl)ccc1O	Wnt/β-catenin transcription	N
O=C(Nc1ccc([N+](=O)[O-])c(Cl)c1)c1cc(Cl)ccc1O	Wnt/β-catenin transcription	Y
C#CCCCCOc1cc([N+](=O)[O-])ccc1NC(=O)c1cc(Cl)ccc1O	Wnt/β-catenin transcription	Y
O=C(Nc1ccc(C(F)(F)F)c(Cl)c1)c1cc(Cl)ccc1O	Wnt/β-catenin transcription	Y
C=CCOc1cc([N+](=O)[O-])ccc1NC(=O)c1cc(Cl)ccc1OC(C)=O	Wnt/β-catenin transcription	Y
COc1ccc(C(=O)Nc2ccc([N+](=O)[O-])cc2Cl)c(O)c1	Wnt/β-catenin transcription	Y

Reported inhibition at 2 µM reaches at least 60% for O=C(Nc1ccc(OCc2ccccc2)c(Cl)c1)c1cc(Cl)ccc1O ?
Y

// inclusive: inhibition at 2 µM at least 60%? input: C#CCOc1cc([N+](=O)[O-])ccc1NC(=O)c1cc(Cl)ccc1O
N
